Listing of entries alongside the reported protein stability index.
B1: TRIM39 (parent)
chain: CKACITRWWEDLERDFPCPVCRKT

- Variants of: B1
- protocol: protein stability index of a GFP-peptide fusion (GPS, HEK-293T) (PSI 1-6); higher = more stable;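 also: lentivirally expressed fusions sorted by FACS into six bins by GFP to DsRed ratio, PSI derived from sequencing read proportions per bin multiplied by bin number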
- run_parameters: c terminus: a fixed tail appended
Lab note: write the figure by itself, no unit.

R22V : 3.04
P19V : 2.94

GET /values?readout=protein stability index&item= R22P 3.15

Further, for W9Y ? 3.75

Further, for T24F ? 3.03

Further, for I5H ? 4.49

Further, for C4R ? 2.18

Further, for F16D ? 4.42

Further, for A3I ? 3.9

Further, for D15P ? 3.87

Further, for I5Q ? 4.31

Further, for C1K ? 1.76

Further, for V20D ? 4.55

Further, for T24N ? 3.61

Further, for K2I ? 3.25

Further, for D15L ? 2.26

Further, for C21E ? 1.32

Further, for E10V ? 3.16

Further, for T6S ? 3.62

Further, for C4F ? 2.45

Further, for K23I ? 3.23
